FYI, the data here is from patent US10307458B2.

protocol details: in vivo
test conditions: male, Sprague-Dawley, rat, in vivo, inhaled or intranasal, 2.5 mg/kg

[
  {
    "sample smiles": "OC[C@@H](O)[C@@H](O)[C@H](O)[C@H](O)CO",
    "unit annotation": "h",
    "half-life": 3.59
  }
]
